# Test system: PEER
# test_method_notes: selective drug sensitivity score (sDSS, relative to normal bone marrow) (sDSS (score)); higher = more potent and effective on the cell line relative to normal bone marrow cells;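 further: ALL cell lines in 384-well plates, five doses spanning 10,000-fold, each plate scaled between vehicle and 100 µmol/L benzalkonium chloride controls, sDSS an adapted area-under-curve metric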
# setup_conditions: 72 h
Each item that follows carries a reported selective drug sensitivity score.
// print number alone

>  <molecule>
CC(C)C[C@H](NC(=O)[C@H](Cc1ccccc1)NC(=O)c1cnccn1)B(O)O [Bortezomib] (top concentration 1000 nM)

>  <selective drug sensitivity score>
2.32

$$$$

Observed selective drug sensitivity score, PEER, O=C(NC[C@H](O)CN1CCc2ccccc2C1)c1cc(NC2COC2)ncn1 (top concentration 10000 nM) : -0.06

Observed selective drug sensitivity score, PEER, O=C(NOC[C@H](O)CO)c1ccc(F)c(F)c1Nc1ccc(I)cc1F (top concentration 1000 nM) : 0.94

Observed selective drug sensitivity score, PEER, CC(=O)OC[C@H]1O[C@@H]([S-])[C@H](OC(C)=O)[C@@H](OC(C)=O)[C@@H]1OC(C)=O.CCP(CC)CC.[Au+] [Auranofin] (top concentration 2500 nM) : 0.74

Observed selective drug sensitivity score, PEER, CCCc1cc(C)[nH]c(=O)c1CNC(=O)c1cc(-c2ccnc(N3CCN(C)CC3)c2)cc2c1cnn2C(C)C [GSK343] (top concentration 1000 nM) : 0

Observed selective drug sensitivity score, PEER, FC(F)c1nc2ccccc2n1-c1nc(N2CCOCC2)nc(N2CCOCC2)n1 [ZSTK474] (top concentration 10000 nM) : -3.64

###

# System: 380
# test_method_notes: selective drug sensitivity score (sDSS, relative to normal bone marrow) (sDSS (score)); higher = more potent and effective on the cell line relative to normal bone marrow cells
# setup_conditions: 72 h
value_kind: selective drug sensitivity score

Reported selective drug sensitivity score for O=C(CCCCCCC(=O)Nc1ccccc1)NO [Vorinostat] (top concentration 10000 nM) was 8.8

Reported selective drug sensitivity score for NC(=O)NO [Hydroxyurea] (top concentration 1000000 nM) was -1.04

Reported selective drug sensitivity score for OC[C@H]1O[C@@H](n2cnc3c2N=CNC[C@H]3O)C[C@@H]1O [Pentostatin] (top concentration 10000 nM) was -0.44

Reported selective drug sensitivity score for Cc1c(-c2ccc(N3CCc4cccc(C(=O)Nc5nc6ccccc6s5)c4C3)nc2C(=O)O)cnn1CC12CC3CC(CC(C3)C1)C2 (top concentration 1000 nM) was 3.94

Reported selective drug sensitivity score for Nc1nc(Cl)nc2c1ncn2[C@H]1C[C@H](O)[C@@H](CO)O1 [Cladribine] (top concentration 1000 nM) was 7.56

###

# System: REH
# test_method_notes: selective drug sensitivity score (sDSS, relative to normal bone marrow) (sDSS (score)); higher = more potent and effective on the cell line relative to normal bone marrow cells
# setup_conditions: 72 h
value_kind: selective drug sensitivity score
// print number alone

Some compounds with known selective drug sensitivity score results, for comparison:
>  <compound>
C[C@H](Nc1ncnc2[nH]cnc12)c1cc2ccc(F)cc2nc1-c1ccccn1 [AMG319] (top concentration 1000 nM)

>  <experimental_target>
REH

>  <selective drug sensitivity score>
-1.02

$$$$
>  <compound>
CC[C@H](NC(=O)[C@H](C)NC)C(=O)N1C[C@@H](O)C[C@H]1Cc1c(-c2[nH]c3cc(F)ccc3c2C[C@@H]2C[C@H](O)CN2C(=O)[C@H](CC)NC(=O)[C@H](C)NC)[nH]c2cc(F)ccc12 [Birinapant] (top concentration 1000 nM)

>  <experimental_target>
REH

>  <selective drug sensitivity score>
1.1

$$$$
>  <compound>
CNC(=O)c1ccccc1Sc1ccc2c(/C=C/c3ccccn3)n[nH]c2c1 [Axitinib] (top concentration 10000 nM)

>  <experimental_target>
REH

>  <selective drug sensitivity score>
9.36

$$$$
>  <compound>
COc1ccc(CCc2nc3cc(-c4c(C)noc4C)ccc3n2C[C@H](C)N2CCOCC2)cc1Cl [SGC-CBP30] (top concentration 25000 nM)

>  <experimental_target>
REH

>  <selective drug sensitivity score>
-0.02

$$$$
>  <compound>
N#Cc1ccc2[nH]c(O)c(-c3ccc(CN4CCOCC4)cn3)c2c1 [AZD-1080] (top concentration 10000 nM)

>  <experimental_target>
REH

>  <selective drug sensitivity score>
8.28

$$$$

Would you kindly look at the next entry?
Observed selective drug sensitivity score, REH, Clc1ccc(Nc2nnc(Cc3ccncc3)c3ccccc23)cc1 [Vatalanib] (top concentration 10000 nM) : 0

###

# Test system: KASUMI-9
# test_method_notes: selective drug sensitivity score (sDSS, relative to normal bone marrow) (sDSS (score)); higher = more potent and effective on the cell line relative to normal bone marrow cells
# setup_conditions: 72 h
value_kind: selective drug sensitivity score
// print number alone

Some molecules with known selective drug sensitivity score results, for comparison:
>  <molecule>
CC(C)C[C@H](NC(=O)[C@H](CCc1ccccc1)NC(=O)CN1CCOCC1)C(=O)N[C@@H](Cc1ccccc1)C(=O)N[C@@H](CC(C)C)C(=O)[C@@]1(C)CO1 [Carfilzomib] (top concentration 1000 nM)

>  <selective drug sensitivity score>
1.76

$$$$
>  <molecule>
N#Cc1ccc(C(c2ccc(C#N)cc2)n2cncn2)cc1 [Letrozole] (top concentration 10000 nM)

>  <selective drug sensitivity score>
-0.04

$$$$

Would you kindly look at the next entry?
Reported selective drug sensitivity score for CC(C)(C)NC(=O)[C@H]1CC[C@H]2[C@@H]3CC[C@H]4NC(=O)C=C[C@]4(C)[C@H]3CC[C@]12C [Finasteride] (top concentration 10000 nM) was -0.12

###

# Test system: COG-LL-355h
# test_method_notes: selective drug sensitivity score (sDSS, relative to normal bone marrow) (sDSS (score)); higher = more potent and effective on the cell line relative to normal bone marrow cells
# setup_conditions: 72 h
Mark y for reported selective drug sensitivity score of 1 or greater; mark n for anything smaller.

Previously resolved entries follow.
>  <molecule>
CO[C@H]1CC[C@H](N2C(=O)CNc3ncc(-c4ccc(C(C)(C)O)nc4)nc32)CC1 [CC-223] (top concentration 10000 nM)

>  <experimental_target>
COG-LL-355h

>  <answer_label>
y

$$$$
>  <molecule>
CC[C@]1(O)C[C@H]2CN(CCc3c([nH]c4ccccc34)[C@@](C(=O)OC)(c3cc4c(cc3OC)N(C)[C@H]3[C@@](O)(C(=O)OC)[C@H](OC(C)=O)[C@]5(CC)C=CCN6CC[C@]43[C@@H]65)C2)C1 [Vinblastine] (top concentration 1000 nM)

>  <experimental_target>
COG-LL-355h

>  <answer_label>
n

$$$$

Ask: Say whether O=C(c1ccc(F)c(F)c1Nc1ccc(I)cc1F)N1CC(O)([C@@H]2CCCCN2)C1 [Cobimetinib] (top concentration 1000 nM) shows selective drug sensitivity score of 1 or more.
Reply: y

Ask: Say whether N#Cc1ccc(C(c2ccc(C#N)cc2)n2cncn2)cc1 [Letrozole] (top concentration 10000 nM) shows selective drug sensitivity score of 1 or more.
Reply: n

Ask: Say whether CO[C@@H](C(=O)N1Cc2[nH]nc(NC(=O)c3ccc(N4CCN(C)CC4)cc3)c2C1)c1ccccc1 [Danusertib] (top concentration 10000 nM) shows selective drug sensitivity score of 1 or more.
Reply: y

Ask: Say whether O=C(NOC[C@H](O)CO)c1ccc(F)c(F)c1Nc1ccc(I)cc1F (top concentration 1000 nM) shows selective drug sensitivity score of 1 or more.
Reply: y

###

# Tested on: COG-LL-319h
# test_method_notes: selective drug sensitivity score (sDSS, relative to normal bone marrow) (sDSS (score)); higher = more potent and effective on the cell line relative to normal bone marrow cells
# setup_conditions: 72 h
Mark y for reported selective drug sensitivity score of 4 or greater; mark n for anything smaller.

>  <compound>
CC[C@@H]1C(=O)N(C)c2cnc(Nc3ccc(C(=O)N[C@H]4CC[C@H](N5CCN(CC6CC6)CC5)CC4)cc3OC)nc2N1C(C)C [Volasertib] (top concentration 1000 nM)

>  <answer_label>
y

$$$$
>  <compound>
C[C@@H]1CN(Cc2ccc(F)cc2)[C@@H](C)CN1C(=O)c1cc2c(C(=O)C(=O)N(C)C)cn(C)c2cc1Cl [Talmapimod] (top concentration 10000 nM)

>  <answer_label>
n

$$$$
>  <compound>
CN1CCN(c2ccc3nc(-c4c(N)c5c(F)cccc5[nH]c4=O)[nH]c3c2)CC1 [Dovitinib] (top concentration 10000 nM)

>  <answer_label>
n

$$$$
>  <compound>
CN(C)CC#Cc1ccc(OCCCc2sc(N3CCc4cccc(C(=O)Nc5nc6ccccc6s5)c4C3)nc2C(=O)O)c(F)c1 (top concentration 10000 nM)

>  <answer_label>
y

$$$$

Ask: Say whether CC(C)C[C@H](NC(=O)[C@H](CCc1ccccc1)NC(=O)CN1CCOCC1)C(=O)N[C@@H](Cc1ccccc1)C(=O)N[C@@H](CC(C)C)C(=O)[C@@]1(C)CO1 [Carfilzomib] (top concentration 1000 nM) shows selective drug sensitivity score of 4 or more.
Reply: n

Ask: Say whether O=C(/C=C/c1cccnc1)NCCCCC1CCN(C(=O)c2ccccc2)CC1 [Daporinad] (top concentration 1000 nM) shows selective drug sensitivity score of 4 or more.
Reply: y
